system: BALB/C mice; test: Itching induced by compound 48/80 (C48/80) in BALB/C mice, oral administration; assay type: in vivo; details: scratching frequency over 30 min, C48/80 1 h after dosing, BALB/C mice, dose 3 mg
Reported property: % Inhibition (mean ± SE)

# count of solved cases: 3
{"columns": ["Compound", "Reported property", "Endpoint value"],
 "data": [
  ["CC(C)(C)c1ccc(CNC(=S)NCc2ccc(NS(C)(=O)=O)c(Cl)c2)cc1 [Compound 2]", "% Inhibition (mean ± SE)", "0.89 ± 7.23%"],
  ["CC(C)(C)c1ccc(CNC(=S)NCc2ccc(NS(C)(=O)=O)c(F)c2)cc1 [Compound 1]", "% Inhibition (mean ± SE)", "−22.90 ± 13.19%"],
  ["CN(C)CCC(c1ccc(Cl)cc1)c1ccccn1 (stereo not shown) [chlorpheniramine, reference compound]", "% Inhibition (mean ± SE)", "−22.90 ± 28.21%"]
]}

Here's the next entry for you.
Task: Can you look up the measured % Inhibition (mean ± SE) of Cc1cc(CNC(=S)NCc2ccc(C(C)(C)C)cc2)ccc1NS(C)(=O)=O [Compound 3] for me?
Output: 8.21 ± 5.82%
